Some compounds, each annotated with its measured pKi.
Target: c-Met (Homo sapiens, UniProt P08581)
Sequence (P08581 25-1390): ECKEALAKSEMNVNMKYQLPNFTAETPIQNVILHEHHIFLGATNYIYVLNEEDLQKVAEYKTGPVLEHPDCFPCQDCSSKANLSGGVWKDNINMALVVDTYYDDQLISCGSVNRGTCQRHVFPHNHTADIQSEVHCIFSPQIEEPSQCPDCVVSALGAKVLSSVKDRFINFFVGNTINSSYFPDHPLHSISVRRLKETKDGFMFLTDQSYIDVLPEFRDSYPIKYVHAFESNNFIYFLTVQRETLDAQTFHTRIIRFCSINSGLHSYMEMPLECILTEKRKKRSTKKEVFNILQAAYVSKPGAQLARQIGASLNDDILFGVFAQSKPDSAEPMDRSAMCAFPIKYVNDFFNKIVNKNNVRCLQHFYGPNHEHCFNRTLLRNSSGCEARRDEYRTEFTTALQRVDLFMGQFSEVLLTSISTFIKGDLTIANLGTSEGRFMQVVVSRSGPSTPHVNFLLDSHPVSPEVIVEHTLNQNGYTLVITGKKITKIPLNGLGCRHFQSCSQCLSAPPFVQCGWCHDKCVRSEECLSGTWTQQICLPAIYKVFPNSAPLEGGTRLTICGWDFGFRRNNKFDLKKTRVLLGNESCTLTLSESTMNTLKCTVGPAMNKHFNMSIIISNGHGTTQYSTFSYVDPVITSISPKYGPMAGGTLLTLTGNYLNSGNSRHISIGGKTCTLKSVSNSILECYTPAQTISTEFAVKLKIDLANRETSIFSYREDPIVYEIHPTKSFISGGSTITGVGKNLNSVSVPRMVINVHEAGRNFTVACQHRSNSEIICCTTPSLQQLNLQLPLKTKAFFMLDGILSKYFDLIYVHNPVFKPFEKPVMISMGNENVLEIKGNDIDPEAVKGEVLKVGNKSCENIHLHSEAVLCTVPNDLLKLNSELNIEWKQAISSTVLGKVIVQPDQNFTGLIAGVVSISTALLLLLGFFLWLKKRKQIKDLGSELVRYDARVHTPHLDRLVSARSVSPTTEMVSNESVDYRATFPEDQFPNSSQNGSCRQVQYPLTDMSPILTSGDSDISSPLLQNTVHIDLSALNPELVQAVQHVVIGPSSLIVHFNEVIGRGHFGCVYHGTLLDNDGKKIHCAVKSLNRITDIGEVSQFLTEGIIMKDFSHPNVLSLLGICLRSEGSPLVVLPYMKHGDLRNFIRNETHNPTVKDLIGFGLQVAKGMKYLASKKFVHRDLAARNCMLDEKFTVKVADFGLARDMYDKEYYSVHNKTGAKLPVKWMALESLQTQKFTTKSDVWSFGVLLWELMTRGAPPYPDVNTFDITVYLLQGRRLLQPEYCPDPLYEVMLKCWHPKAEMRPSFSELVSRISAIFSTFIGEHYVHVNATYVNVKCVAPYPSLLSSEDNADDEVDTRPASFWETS
Assay: Ki determination for the inhibition of c-Met kinase activity (standard coupled enzyme system)
Assay type: biochemical
Conditions: coupled enzyme system, 200 μM ATP, 80 nM c-Met, 30° C.; read-out: c-Met Ki
pKi: −log10 of the molar value.
QUANTITY: pKi

c1ccc(C2=Nn3c(Cc4ccncc4)nnc3SC2)cc1	< 5.70
O=C(Cc1ccccc1)N1CCCC(Nc2ccc3nnc(Cc4ccc(O)cc4)n3n2)C1 (stereo not drawn)	< 5.70
Clc1cccc(Nc2ccc3nnc(CNc4ccc5cn[nH]c5c4)n3n2)c1	5.70 to 7.00
CC1=Nn2c(Cc3ccc(O)cc3)nnc2SC1C (stereo not drawn)	< 5.70
Clc1cccc(Nc2ccc3nnc(COc4cccnc4)n3n2)c1	5.70 to 7.00
CC(C)C[C@H](NC(=O)OCc1ccccc1)C1=Nn2c(Cc3ccc(O)cc3)nnc2SC1	< 5.70
Fc1ccc(NCc2nnc3ccc(Nc4cccc(Cl)c4)nn23)cc1	< 5.70
CC(=O)N[C@H]1CCCC[C@H]1Nc1ccc2nnc([C@@H](C)c3ccc(O)cc3)n2n1	5.70 to 7.00
Fc1ccc(OCc2nnc3ccc(Nc4cccc(Cl)c4)nn23)cn1	5.70 to 7.00
Oc1cccc(NCc2nnc3ccc(Nc4cccc(Cl)c4)nn23)c1	5.70 to 7.00
COCCC(=O)N[C@@H]1CCCC[C@H]1Nc1ccc2nnc([C@@H](C)c3ccc(O)cc3)n2n1	< 5.70
O=c1ccc(Cc2nnc3ccc(Nc4cccc(Cl)c4)nn23)c[nH]1	> 7.00
C[C@@H](c1ccc(O)cc1)c1nnc2ccc(Nc3ccncn3)nn12	5.70 to 7.00
N#Cc1cccc(OCc2nnc3ccc(Nc4cccc(Cl)c4)nn23)c1	< 5.70
N#CCc1ccc(OCc2nnc3ccc(Nc4cccc(Cl)c4)nn23)cc1	< 5.70
C[C@H](CO)Nc1ccc2nnc(Cc3ccc(O)cc3)n2n1	5.70 to 7.00
Clc1ccc(Cl)c(Nc2ccc3nnc(Cc4ccc5c(c4)OCO5)n3n2)c1	5.70 to 7.00
Fc1ccc(Cc2nnc3n2N=C(c2cccs2)CS3)cc1	5.70 to 7.00
